Data credit: ChEMBL document CHEMBL3872247

tgt: UniProtKB P41594
Sequence (P41594 whole entry): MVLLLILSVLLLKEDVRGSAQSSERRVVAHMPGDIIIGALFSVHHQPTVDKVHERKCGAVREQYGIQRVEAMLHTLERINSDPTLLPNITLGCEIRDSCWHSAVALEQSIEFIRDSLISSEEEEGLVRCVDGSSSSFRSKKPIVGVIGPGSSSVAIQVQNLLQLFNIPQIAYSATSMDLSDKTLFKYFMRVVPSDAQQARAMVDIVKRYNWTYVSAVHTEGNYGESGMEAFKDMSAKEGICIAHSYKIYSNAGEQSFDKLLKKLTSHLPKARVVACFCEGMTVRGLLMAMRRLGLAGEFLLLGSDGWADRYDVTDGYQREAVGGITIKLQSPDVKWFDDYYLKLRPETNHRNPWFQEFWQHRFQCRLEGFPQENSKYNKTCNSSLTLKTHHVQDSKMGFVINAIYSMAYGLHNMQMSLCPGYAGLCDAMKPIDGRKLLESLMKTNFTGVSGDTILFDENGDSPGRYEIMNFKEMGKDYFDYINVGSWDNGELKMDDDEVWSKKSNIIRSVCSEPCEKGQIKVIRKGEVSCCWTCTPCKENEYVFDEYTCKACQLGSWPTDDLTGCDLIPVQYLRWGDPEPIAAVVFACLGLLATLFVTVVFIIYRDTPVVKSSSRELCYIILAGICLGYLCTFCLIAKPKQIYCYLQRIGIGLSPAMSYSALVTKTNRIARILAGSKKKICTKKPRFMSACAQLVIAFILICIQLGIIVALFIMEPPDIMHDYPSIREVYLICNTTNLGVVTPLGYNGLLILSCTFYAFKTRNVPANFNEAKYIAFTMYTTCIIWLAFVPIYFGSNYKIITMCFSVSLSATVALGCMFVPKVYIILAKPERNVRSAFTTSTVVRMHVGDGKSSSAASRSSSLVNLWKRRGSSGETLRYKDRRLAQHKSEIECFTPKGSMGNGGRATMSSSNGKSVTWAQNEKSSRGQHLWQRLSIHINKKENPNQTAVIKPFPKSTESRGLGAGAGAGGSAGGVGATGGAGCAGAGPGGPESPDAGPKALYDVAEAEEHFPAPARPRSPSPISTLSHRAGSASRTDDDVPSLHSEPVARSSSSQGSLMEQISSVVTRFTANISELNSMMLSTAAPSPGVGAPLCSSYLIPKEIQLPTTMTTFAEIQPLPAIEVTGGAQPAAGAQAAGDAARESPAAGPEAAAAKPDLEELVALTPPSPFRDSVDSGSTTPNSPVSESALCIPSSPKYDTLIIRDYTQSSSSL
assayInfo: Agonist activity at recombinant human mGlu5 expressed in hamster AV12 cells expressing EAAT1 assessed as increase in intracellular calcium level measured after 24 hrs by FLIPR assay
Assay type: functional, cell-based
outcomeMeasure: EC50

QUERY: Fill blank: measured EC50 of the compound CC(=O)c1ccc(OCc2ccc(Oc3cc(-c4nn[nH]n4)ccn3)cc2)c(C)c1O is ____.
RESULT: > 25 µM

* * *

assayInfo: Oral bioavailability in rat at 1 mg/kg
Format: ADME, organism-based
testSettings: in vivo
outcomeMeasure: bioavailability
The answer consists of two parts: a number and, after it, its unit.

QUERY: Fill blank: measured bioavailability of the compound CC(=O)c1ccc(OCc2cccc(Oc3cc(-c4nn[nH]n4)ccn3)c2)c(C(F)(F)F)c1O is ____.
RESULT: 38%

QUERY: Fill blank: measured bioavailability of the compound CC(=O)c1ccc(OCc2ccc(Oc3cc(-c4nn[nH]n4)ccn3)cc2)c(C)c1O is ____.
RESULT: 39%

QUERY: Fill blank: measured bioavailability of the compound CC(=O)c1ccc(OCc2ccc(Oc3cccc(-c4nn[nH]n4)c3)cc2)c(C)c1O is ____.
RESULT: 88%
